- system_tested: human IDO1 (Homo sapiens)
- test_protocol: Assessment of human IDO-1 inhibitory activity in HEK cells (human IDO1/HEK293 cells, Ehrlich reagent, absorbance at 490 nm)
- Type: cell-based
- Design: expressed in transfected cells
- condition_info: In Vitro Potency in the HEK Human IDO-1 Cellular Assay
measurement_name: IC50

[[record]]
molecule = "CCC(CC(=O)O)c1cc(NC(=O)Nc2cncnc2)c(N(CC(C)C)C2CCCCC2)cc1F (single isomer, unassigned)"
system_tested = "human IDO1 (Homo sapiens)"
measurement_name = "IC50"
observed_value = "< 5 nM"

[[record]]
molecule = "CCC(CC(=O)O)c1ccc(N(CC2CC2)C2CCOCC2)c(Nc2ccc(Cl)cc2)c1 (single isomer, unassigned)"
system_tested = "human IDO1 (Homo sapiens)"
measurement_name = "IC50"
observed_value = "< 5 nM"

[[record]]
molecule = "COCC(CC(=O)O)c1cc(F)c(N(CC(C)C)C2CCCCC2)c(NC(=O)Cc2ccc(C)cc2)c1 (single isomer, unassigned)"
system_tested = "human IDO1 (Homo sapiens)"
measurement_name = "IC50"
observed_value = "< 50 nM"


Incoming: Give me measured IC50, please, for this molecule: COCC(CC(=O)O)c1ccc(N(CC(C)C)C2CCCCC2)c(NC(=O)Nc2ccccc2F)c1 (single isomer, unassigned) [1125 E1]
Outgoing: < 5 nM

Incoming: Return the recorded IC50 value; entry: Cc1ccc(NC(=O)Nc2cc(C(C)CC(=O)O)c(F)cc2N(CC(C)C)C2CCCCC2)cc1 (single isomer, unassigned)
Outgoing: < 5 nM

Incoming: Specify reported IC50 for the molecule shown: CCC(CC(=O)O)c1cc(F)c(N(CC(C)C)C2CCCCC2)c(NC(=O)Nc2ccc(C)cc2)c1 (racemic)
Outgoing: < 5 nM

----------
- system_tested: human IDO1 (Homo sapiens, UniProt P14902)
- Sequence (P14902 whole entry): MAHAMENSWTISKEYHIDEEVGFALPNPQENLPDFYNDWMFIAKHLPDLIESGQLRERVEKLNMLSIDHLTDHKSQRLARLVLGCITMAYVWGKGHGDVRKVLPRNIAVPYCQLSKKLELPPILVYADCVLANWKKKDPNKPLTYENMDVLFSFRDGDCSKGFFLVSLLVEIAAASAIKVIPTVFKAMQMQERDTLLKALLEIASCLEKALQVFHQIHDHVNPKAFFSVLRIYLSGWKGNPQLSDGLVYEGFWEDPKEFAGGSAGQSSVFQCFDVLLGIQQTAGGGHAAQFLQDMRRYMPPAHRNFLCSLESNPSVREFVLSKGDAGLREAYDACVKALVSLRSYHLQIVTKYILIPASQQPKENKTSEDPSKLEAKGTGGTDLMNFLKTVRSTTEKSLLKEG
- test_protocol: Assessment of human IDO-1 inhibitory activity in HEK cells (human IDO1/HEK293 cells, Ehrlich reagent, absorbance at 490 nm)
- Format: cell-based
- Set-up: expressed in transfected cells
- condition_info: In Vitro Potency in the HEK Human IDO-1 Cellular Assay
pIC50: −log10 of the molar value.
Recorded measurements of pIC50, one per entry

[[record]]
compound = "CCC(CC(=O)O)c1ccc(N2CCC[C@@H]2C(C)(C)O)c(NC(=O)Nc2ccc(F)cc2)c1 (single isomer, unassigned)"
observed_value = "< 7.30"


Incoming: Note down pIC50 recorded for CCOc1ncc(Nc2cc(C(CC)CC(=O)O)ccc2N(CC2CC2)C2CCOCC2)cn1 (single isomer, unassigned)
Outgoing: > 8.30

----------
- system_tested: human IDO1 (Homo sapiens)
- test_protocol: Assessment of human IDO-1 inhibitory activity in Hela cells (Interferon-gamma activated, Ehrlich reagent, absorbance at 490 nm)
- Assay type: cell-based
- Design: endogenous in cells; host or cells: HeLa cells stimulated with interferon-gamma
- condition_info: 18 hours
- Procedure: Exemplary compounds were tested for inhibition of IDO activity. HeLa cells were seeded at 20,000 cells per 30 µL per well with RPMI/phenol red free media containing 10% FBS in a 384-well tissue culture plate (black with clear bottoms). 50 nL of compound was added to cells and incubated at 37° C. for one hour. […] Compound treatment was stopped by adding 5 μl trichloroacetic acid to a final concentration of 3%. […] Absorbance at 490 nm was measured on Envision plate reader. […]
pIC50: −log10 of the molar value.
measurement_name: pIC50

[[record]]
compound = "COCC(CC(=O)O)c1ccc(N(CC(F)F)C2CCOCC2)c(Nc2ccc(C#N)cc2)c1 (single isomer, unassigned)"
observed_value = "> 8.30"


Incoming: Respond only with pIC50 recorded for CCC(CC(=O)O)c1ccc(N(CCOC)C2CCOCC2)c(Nc2cnc(OC)nc2)c1 (single isomer, unassigned)
Outgoing: > 7.30
